# experimental_target: 3-hydroxyacyl-CoA dehydrogenase type-2 (Homo sapiens) (UniProt Q99714)
# experimental_protocol: qHTS Assay for Inhibitors of HSD17B4, hydroxysteroid (17-beta) dehydrogenase 4;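 also: the protocol describes HADH2 (HSD17B10) and not the HSD17B4 of the title; nearly all actives have a fitted effect of over 70% in size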
# cond: recombinant HSD17B10, NADH fluorescence kinetic; series mostly up to 57.1 µM
Hit rate of the full screen: of about 75,000 compounds, about 5,700 (7.6%) were called active. Not shown: some 7% with an inconclusive outcome. Calls follow the shape of the dose curve; as a rule, active = well fitted inhibition curve with a large enough effect; inconclusive = small, poorly fitted or top-dose-only effect; inactive = no such curve, though single readings can be large or run the other way. This excerpt belongs to a sample that is enriched for actives.
Just give me one of these, please: 1 = active, 0 = inactive

Here are 8 compounds together with their reported answers.
compound=N=c1c2c3c(sc2ncn1CCCN1CCOCC1)CCCCC3 label_class=0
compound=O=c1[nH]nc(Cc2ccccn2)c2ccccc12 label_class=0
compound="COc1cccc(N2CC(C(=O)Nc3c(C)cccc3C)CC2=O)c1 (stereo unspecified)" label_class=0
compound="O=C1NC(c2cc3c(cc2Cl)OCO3)Oc2ccccc21 (stereo unspecified)" label_class=1
compound="O=C(Cn1nc(Cc2cccnc2)c2ccccc2c1=O)NCC1CCCO1 (stereo unspecified)" label_class=0
compound="CC1CCCC(C)N1CCCNC(=O)c1cc2c(=O)n(C)c3ccccc3c2n1C (stereo unspecified)" label_class=1
compound=Cc1cccn2c(=O)c3cc(C#N)c(=O)n(CCCN4CCOCC4)c3nc12 label_class=1
compound=O=C(NC1CCN(Cc2ccccc2)CC1)c1ccccc1F label_class=0

**Q:** Could you check what this test reported for CCCOc1ccccc1C1CC(=O)Nc2cc3c(cc21)OCO3 (stereo unspecified) ?
**A:** 0

**Q:** // same read-out, input: Cc1nc2ccc(NC(=O)N3CCC(c4ccccc4)C3)cc2nc1C (stereo unspecified)
**A:** 1

**Q:** // same read-out, input: Cc1nnc(SCC(N)=O)n1CC1CCCO1 (stereo unspecified)
**A:** 0

###

# experimental_target: 3-hydroxyacyl-CoA dehydrogenase type-2 (Homo sapiens)
# experimental_protocol: qHTS Assay for Inhibitors of HSD17B4, hydroxysteroid (17-beta) dehydrogenase 4;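 also: the protocol describes HADH2 (HSD17B10) and not the HSD17B4 of the title; nearly all actives have a fitted effect of over 70% in size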
# cond: recombinant HSD17B10, NADH fluorescence kinetic; series mostly up to 57.1 µM
Among all 75,000 compounds or so, about 5,700 (7.6%) were called active. Not shown: some 7% with an inconclusive outcome. The call rests on the fitted dose curve; in most records, active means well fitted inhibition curve with a large enough effect; inconclusive means small, poorly fitted or top-dose-only effect; inactive means no such curve, though single readings can be large or run the other way. The sample as a whole holds a higher share of actives than the screen did.
Just give me one of these, please: t for active, f for inactive

Here are 5 compounds together with their reported answers.
compound=O=C1CCCN1CCCNc1ncnc2c1[nH]c1ccccc12 experimental_target="3-hydroxyacyl-CoA dehydrogenase type-2 (Homo sapiens)" label_class=t
compound=Cc1ccc(C)c(NS(=O)(=O)c2cc(Br)cnc2N)c1 experimental_target="3-hydroxyacyl-CoA dehydrogenase type-2 (Homo sapiens)" label_class=f
compound=Cn1cc(-c2nc3cnc(N4CCNCC4)nc3n(CCc3ccccc3)c2=O)c2ccccc21 experimental_target="3-hydroxyacyl-CoA dehydrogenase type-2 (Homo sapiens)" label_class=f
compound=O=c1c(CCc2ccccc2)nc2cncnc2n1C1CC1 experimental_target="3-hydroxyacyl-CoA dehydrogenase type-2 (Homo sapiens)" label_class=f
compound=CCS(=O)(=O)N(C)[C@@H]1c2cc(C#N)ccc2OC(C)(C)[C@H]1O experimental_target="3-hydroxyacyl-CoA dehydrogenase type-2 (Homo sapiens)" label_class=f

**Q:** Could you check what this test reported for `Cc1ccc(-n2ncc3c(N4CCN(c5ccc(F)cc5)CC4)ncnc32)c(C)c1` ?
**A:** f

**Q:** // same read-out, input: `CCCc1nc2c3cnn(-c4cccc(Cl)c4)c3ncn2n1`
**A:** f

**Q:** // same read-out, input: `Cc1ccc(C(=O)N2CCCCCC2)cc1Br`
**A:** f

**Q:** // same read-out, input: `COc1cccc(Cn2c(=O)c(C)nc3cnc(Oc4ccccc4)nc32)c1`
**A:** f

**Q:** // same read-out, input: CSc1ccc(Cl)c(C(=O)OCC(=O)N2CC(C)OC(C)C2)c1 (centres undefined)
**A:** f

**Q:** // same read-out, input: CCOC(=O)c1ccc(N2C(=O)CC(N3CC(C)OC(C)C3)C2=O)cc1 (centres undefined)
**A:** f

**Q:** // same read-out, input: `O=c1cc(CSc2ccc(Cl)cc2)nc(N2CCOCC2)[nH]1`
**A:** f

**Q:** // same read-out, input: `COC(=O)C1=C(C)N(C)C(C)=C(C(=O)OC)C1c1cccc(Br)c1`
**A:** f

**Q:** // same read-out, input: `O=C(c1cc(-c2cccs2)on1)N1CCCCC1`
**A:** f

Values from PubChem BioAssay AID893
